FYI, the data here is from PubChem BioAssay AID1479.

assay: Total Fluorescence Counterscreen for Inhibitors of the Interaction of Thyroid Hormone Receptor and Steroid Receptor Coregulator 2; settings: TRb/SRC2 Texas Red total fluorescence interference; series mostly up to 106 µM
Among all 280,000 compounds or so, about 820 (0.29%) were called active. Not shown: some 1% with an inconclusive outcome. Calls come from the whole dose curve; as a rule, active = well fitted curve in either direction with a large enough effect; inconclusive = small, poorly fitted or top-dose-only effect; inactive = flat fitted curve, though single readings scatter. Many of the other results were omitted from the sample, so actives are more common in it than they were.
Lab note: assign the record to one of active, inactive

Worked set:
>>> category_label("Cc1cccc(-n2ccnc2SCC(=O)Nc2cccc3ccccc23)c1C")
"inactive"
>>> category_label("CC1(C)C(=O)N(Cl)C(=O)N1Cl")
"inactive"
>>> category_label("COc1ccc(CCC(=O)NCc2ccc3c(c2)CCN3C(=O)c2ccc(F)cc2)cc1")
"inactive"
>>> category_label("Cn1c(=O)n(C)c2cc(C(=O)Nc3ccc4c(c3)OCO4)ccc21")
"inactive"
>>> category_label("N#C/C(=C/c1ccc(N2CCCCC2)o1)C(=O)NCCc1c[nH]c2ccccc12")
"inactive"

How did this test come out for CCc1c(C(=O)O)c(=O)cnn1-c1ccc(Cl)cc1 ? inactive

How did this test come out for COc1ccc(-c2c(C)nn3c(N4CCC(C(=O)NCCC(C)C)CC4)cc(C)nc23)cc1OC ? inactive

How did this test come out for COc1c(O)c2c(=O)cc(OC)c3c4c(OC)cc(=O)c5c(O)c(OC)c6c(c(c1C[C@@](C)(O)[C@H]6C(C)=O)c23)c54 ? active
